B1: library; a variant is named by its letters at N, in order (parent)
chain: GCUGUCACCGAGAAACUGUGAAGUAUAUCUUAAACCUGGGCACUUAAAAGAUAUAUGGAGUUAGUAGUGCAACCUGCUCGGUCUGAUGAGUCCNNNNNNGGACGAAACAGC

- Variants of: B1
- Protocol details: FACS-Seq fitted mean relative fluorescence mCherry/BFP with ligand (log10 relative fluorescence); HEK293T; ligand: cyclic di-GMP (c-di-GMP-II aptamer); ligand concentration (+) FACS-Seq: 1 mM; higher = higher reporter protein expression
- Condition set: ligand present: yes
Measured attribute: FACS-Seq fitted mean (log10)
I'd appreciate a reply containing only the number, no unit.

For reference, reported FACS-Seq fitted mean (log10) for "UCGAUU" stands at 0.0883

For reference, reported FACS-Seq fitted mean (log10) for "UGAAUC" stands at -0.4

For reference, reported FACS-Seq fitted mean (log10) for "AGCUUG" stands at 0.223

For reference, reported FACS-Seq fitted mean (log10) for "GUAGAA" stands at -0.189

For reference, reported FACS-Seq fitted mean (log10) for "AUAUAG" stands at 0.255

For reference, reported FACS-Seq fitted mean (log10) for "UAUGUA" stands at -0.405

For reference, reported FACS-Seq fitted mean (log10) for "GCCAAG" stands at -0.362

For reference, reported FACS-Seq fitted mean (log10) for "CCCUCC" stands at -0.756

For reference, reported FACS-Seq fitted mean (log10) for "CUUAAU" stands at 0.142

For reference, reported FACS-Seq fitted mean (log10) for "GAGUUA" stands at -0.129

For reference, reported FACS-Seq fitted mean (log10) for "CCAGCA" stands at -0.329

For reference, reported FACS-Seq fitted mean (log10) for "AUGACU" stands at -0.93

For reference, reported FACS-Seq fitted mean (log10) for "AAUGGC" stands at 0.153

For reference, reported FACS-Seq fitted mean (log10) for "UACCCU" stands at -0.201
